System: GSC7 cells
Experiment: Nano-Glo Dual-Luciferase Reporter (Nanoglo DLR) assay of enhancer activity, fold change to mCMV
Assay type: cell-based, human
Details: expression fold change of the individual enhancer compared to mCMV
In this section, each of the molecules is paired with its reported Fold change (Median).

MOLECULE	MEASURED RESULT
ID3836: enhancer fragment, SEQ ID NO: 20 (nucleic acid) DNA: TACCCTTCCAGGGGAGCAGTTTCCTGGCTGTGTCGTCAGATACTGTGGTTTACGCTGTTCCGGAGTCTGGAGGTCTGTGTGCCTTTGATCTCTTTCCCAACTAATTTGCACAGCTGCTGTGGAGGCCCTCATGAATGACCTCTTTCTTTCCTTTCT	33.4 fold
ID0109: enhancer fragment, SEQ ID NO: 6 (nucleic acid) DNA: GAAATTGGATCCTGAGGAGAATGTCACCACCTCTTTGACAATAACTAGCTTTCAGAGCTGAACACAGTGAATCTGGATACTGTGTATATGTTTAAATGAGTTAGGAAATGACATCACATTATTTATTTCTTCTTTTGTGACTTAGTAAATTGACTTGGCC	116.4 fold

Read the next record carefully.
What does the record list as Fold change (Median) for ID3146: enhancer fragment, SEQ ID NO: 16 (nucleic acid) DNA: TGAAAGAGATGGGTGTGTGGGAGTGGGGGAAGCTGAGCTCCAGGCAGACAGCACAGAGCCGCCTTGTCCAACCCAGCCAGGTGCCATGGCAACCAACAAAGGCCCCATTGTCCCGTGTCTGCTGGGCCTTCCTGAGGCTCTGGGGTCAGAGTCCCGGTT ?
37.2 fold
